Documented INHIBITION across a set of compounds
System: Plasmodium berghei
procedure.details: Screen against P. berghei liver stage (PbLuc), transformed with Luciferase, at 2uM
Type: functional, HepG2
experimental.context: tested at 2 uM
Hit rate of the full screen: of about 68,000 compounds, about 2,700 (4%) showed an effect of 50% or more. The list comes from a sample in which strong results are over-represented; it also holds close analogues and randomly drawn compounds.

compound	INHIBITION / %
CC/C=C(/C)C(=O)NS(=O)(=O)c1ccc(C#N)c(C(F)(F)F)c1	57
N#Cc1csc(CNCCOc2ccc(Cl)cn2)c1	10.91
Cc1nnc2n1CCN(CCOc1cccc(C#N)c1)C2	33.82
Cc1cc(C)n(CC2CCCN2Cc2ncc(C(C)(C)C)o2)n1 (configuration not stated)	-11.91
COc1ccc2c(c1)C1(CCN(Cc3ccncc3)CC1)N(C)CC2	32.14
CCCC(=O)NS(=O)(=O)c1ccc(C#N)c(C(F)(F)F)c1	4.68
O=C(c1cc2c(s1)CCC2)N1CCCC1Cn1cccn1 (configuration not stated)	17.39
CC/C=C(/C)C(=O)NS(=O)(=O)c1ccc(C#N)cc1C(F)(F)F	6.08
Cc1n[nH]c(C)c1C1CCCN1C(=O)c1cc(Br)c[nH]1 (configuration not stated)	56.21
CC(CC(=O)O)CC(=O)Nc1sc2c(c1C(N)=O)CCc1ccccc1-2 (configuration not stated)	-0.22
Cc1nc(CCCNC(=O)C2CC(=O)N(C3CC3)C2)sc1C (configuration not stated)	-52.42
Cc1cccc(C(=O)N2CCCC2c2c(C)n[nH]c2C)c1 (configuration not stated)	41.84
O=C(N[C@@H]1CCN(Cc2cc3ccccc3s2)C[C@H]1O)c1cccnc1	60.35
COc1cccc2c1OCC(CNC(=O)CSc1ccccn1)C2 (configuration not stated)	33.11
CC(C)CN1CC[C@@H]2[C@H](CC1)N(S(C)(=O)=O)CCS2(=O)=O	30.95
CCNC(=O)[C@@H]1CCCN1C1(C(=O)NC)CCC1	10.65
CC(C)Cc1nc(CN2CCOC(Cn3cccn3)C2)no1 (configuration not stated)	-20.61
O=C1CC(c2ccccc2)c2sc(C(=O)O)c(-c3ccccc3)c2N1 (configuration not stated)	4.74
CC(C)(C)c1cnc(CN2CCCC2Cn2cccn2)o1 (configuration not stated)	-50.72
CN(C)C(=O)N1CC(C(=O)NCC2CC2)C2(CCOCC2)C1 (configuration not stated)	55.92
COCC(=O)N1CC(C(=O)NCC2CC2)C2(CCOCC2)C1 (configuration not stated)	-13.16
CCN1CC(C(=O)NCCCc2nc(C)c(C)s2)CC1=O (configuration not stated)	72.05
CC(C)NC(=O)C1CN(C(=O)N2CCCC2)CC12CCOCC2 (configuration not stated)	17.51
Cc1noc(C)c1CCC(=O)NC(C)c1nnc2n1CCC2 (configuration not stated)	20.31
Cc1ccc(CN2CC[C@@H](NC(=O)c3cccnc3)[C@H](O)C2)s1	-38.78
Cc1nc(CN2CCN(S(=O)(=O)N3CCCCC3)CC2)oc1C	54.44
Cc1nc(CN2CCOC3(CCCC3)C2)oc1C	20.49
